assay_overview: Solubility of the compound in water at pH 7 by UV-vis spectrophotometric analysis
Assay type: physicochemical
measured_metric: solubility

# mol, measured_metric, value_measured
records = [
    ("CO[C@H]1/C=C/O[C@@]2(C)Oc3c(C)c(O)c4c(O)c(c(CN5CCC6(CC5)NCCc5ccccc56)c(O)c4c3C2=O)NC(=O)/C(C)=C\\C=C\\[C@H](C)[C@H](O)[C@@H](C)[C@@H](O)[C@@H](C)[C@H](OC(C)=O)[C@@H]1C", "solubility", "< 50 µg/mL"),
    ("CO[C@H]1/C=C/O[C@@]2(C)Oc3c(C)c(O)c4c(O)c(c(/C=N/NC(C)(C)C)c(O)c4c3C2=O)NC(=O)/C(C)=C\\C=C\\[C@H](C)[C@H](O)[C@@H](C)[C@@H](O)[C@@H](C)[C@H](OC(C)=O)[C@@H]1C", "solubility", "< 50 µg/mL"),
    ("CO[C@H]1/C=C/O[C@@]2(C)Oc3c(C)c(O)c4c(O)c(c(CN5CCN(c6ccccn6)CC5)c(O)c4c3C2=O)NC(=O)/C(C)=C\\C=C\\[C@H](C)[C@H](O)[C@@H](C)[C@@H](O)[C@@H](C)[C@H](OC(C)=O)[C@@H]1C", "solubility", "< 50 µg/mL"),
    ("CO[C@H]1/C=C/O[C@@]2(C)Oc3c(C)c(O)c4c(O)c(c(CNC5CCN(CC6CCCCC6)CC5)c(O)c4c3C2=O)NC(=O)/C(C)=C\\C=C\\[C@H](C)[C@H](O)[C@@H](C)[C@@H](O)[C@@H](C)[C@H](OC(C)=O)[C@@H]1C", "solubility", "< 50 µg/mL"),
    ("CO[C@H]1/C=C/O[C@@]2(C)Oc3c(C)c(O)c4c(O)c(c(CNC5CCN(C(=O)OC(C)(C)C)CC5)c(O)c4c3C2=O)NC(=O)/C(C)=C\\C=C\\[C@H](C)[C@H](O)[C@@H](C)[C@@H](O)[C@@H](C)[C@H](OC(C)=O)[C@@H]1C", "solubility", "< 50 µg/mL"),
    ("CO[C@H]1/C=C/O[C@@]2(C)Oc3c(C)c(O)c4c(O)c(c(/C=N/N5CCCCCC5)c(O)c4c3C2=O)NC(=O)/C(C)=C\\C=C\\[C@H](C)[C@H](O)[C@@H](C)[C@@H](O)[C@@H](C)[C@H](OC(C)=O)[C@@H]1C", "solubility", "< 300 µg/mL"),
    ("CO[C@H]1/C=C/O[C@@]2(C)Oc3c(C)c(O)c4c(O)c(c(/C=N/N5CCCC5)c(O)c4c3C2=O)NC(=O)/C(C)=C\\C=C\\[C@H](C)[C@H](O)[C@@H](C)[C@@H](O)[C@@H](C)[C@H](OC(C)=O)[C@@H]1C", "solubility", "< 300 µg/mL"),
    ("CO[C@H]1/C=C/O[C@@]2(C)Oc3c(C)c(O)c4c(O)c(c(/C=N/Nc5ccnc6cc(Cl)ccc56)c(O)c4c3C2=O)NC(=O)/C(C)=C\\C=C\\[C@H](C)[C@H](O)[C@@H](C)[C@@H](O)[C@@H](C)[C@H](OC(C)=O)[C@@H]1C", "solubility", "< 300 µg/mL"),
    ("CO[C@H]1/C=C/O[C@@]2(C)Oc3c(C)c(O)c4c(O)c(c(CNC5CCN(S(C)(=O)=O)CC5)c(O)c4c3C2=O)NC(=O)/C(C)=C\\C=C\\[C@H](C)[C@H](O)[C@@H](C)[C@@H](O)[C@@H](C)[C@H](OC(C)=O)[C@@H]1C", "solubility", "< 50 µg/mL"),
    ("CO[C@H]1/C=C/O[C@@]2(C)Oc3c(C)c(O)c4c(O)c(c(CN5CCN(Cc6ccc(F)cc6)CC5)c(O)c4c3C2=O)NC(=O)/C(C)=C\\C=C\\[C@H](C)[C@H](O)[C@@H](C)[C@@H](O)[C@@H](C)[C@H](OC(C)=O)[C@@H]1C", "solubility", "< 50 µg/mL"),
]
